- Tested on: HL-60(TB) leukemia
- protocol notes: NCI-60 one-dose screen, 48 h
- condition notes: 10 µM unless noted
About 83,000 compounds went through this panel and 20% of them were active in at least one assay; those are over-represented in the sample as a whole. Calls of active or inactive are those of the source. Rule for the calls: active = growth percent below 10; inactive = the rest.
Possible outcomes: YES (active), NO (inactive)

1. CCN1C(=O)N(CC)C2C1NC(=S)N2/N=C/C=C/c1cccs1 (stereo unspecified) ... YES
2. CNC(=O)c1cn(C2CC2)c2cc(N3CCN(C(=O)c4cc(OC)c(OC)c(OC)c4)CC3)c(F)cc2c1=O ... NO
3. COc1cc(C(=O)/C=C/c2cccnc2Nc2ccccc2)cc(OC)c1OC ... YES
4. CC1C2CCC(C2)C1COCCOCCO (stereo unspecified) ... NO
5. CCC(=C(c1ccc(OCCCN(C)C)cc1)c1ccc(OCCCN(C)C)cc1)c1ccc(Cl)cc1 ... YES
6. NC(N)=N/N=C/CO ... NO
7. OCC(CO)(CCl)CCl ... NO
8. O=C(NC1CCC(Br)CC1)C1CCCC(S(=O)(=O)NC2CCCCC2)C1 (stereo unspecified) ... YES
9. CC(=O)O[C@H]1CC[C@]2(C)[C@H]3CC=C4[C@@H]5CC(C)(C)CC[C@]5(C(=O)NCCNCCN)CC[C@@]4(C)[C@]3(C)CC[C@H]2C1(C)C ... YES
10. CCCNc1nc(C)[nH]c(=O)c1S ... NO
11. CNCCCC12CCC(c3ccccc31)c1ccccc12 ... NO

---

- Test system: T-47D breast
- protocol notes: NCI-60 one-dose screen, 48 h
- condition notes: 10 µM unless noted
About 83,000 compounds went through this panel and 20% of them were active in at least one assay; those are over-represented in the sample as a whole. Calls of active or inactive are those of the source. The calls were made as follows: active = growth percent below 10; inactive = the rest.
Possible outcomes: active, inactive

1. C[CH2][Pb]([CH2]C)([CH2]C)[O]C(=O)COC ... inactive
2. CC(C)(O)/C=C/C(=O)[C@](C)(O)[C@H]1[C@H](O)C[C@@]2(C)[C@@H]3CC=C4[C@@H](C=C(O)C(=O)C4(C)C)[C@]3(C)C(=O)C[C@]12C ... active
3. [Cl][Hg][n]1cnc2c(Cl)c(Cl)c(Cl)cc21 ... inactive
4. O=C(O)c1nn(Cc2ccc(Cl)cc2)c2ccccc12 ... inactive
5. O=S(=O)(F)c1ncnc2nc[nH]c12 ... inactive
6. O=c1cc[nH]c(=O)o1 ... inactive
7. CNc1ccc(C(=O)CC(O)CCC(C)C2OC(=O)CC(O)CC(=O)CC(O)CC(O)CC(O)CC(O)CC3(O)CC(O)C(C(=O)OC)C(CC(O[C@@H]4O[C@H](C)[C@@H](O)[C@H](N)[C@@H]4O)/C=C/C=C/C=C/C=C/C=C/C=C/C=C/C2C)O3)cc1 (stereo partly specified) ... active
8. CC1COC(=O)C1 (stereo unspecified) ... inactive
9. O=C(/C=C/c1ccccc1)N[C@@H](CO)Cc1cnc[nH]1 ... inactive
10. Cc1ccccc1O ... inactive
11. O=C(CCF)c1ccc(O)cc1 ... inactive
12. CCC1CN1P(=O)(OCCOC)N1CC1CC (stereo unspecified) ... inactive
13. O1[As]2O[As]3O[As]1O[As](O2)O3 ... inactive
14. Cc1ccc(C(=O)C2CN(C)CCC2(O)c2ccc(C)cc2)cc1 (stereo unspecified) ... inactive
15. CC1(C)CC(=O)CC(C)(C)N1N=O ... inactive
16. NC(=O)SCC(=O)Nc1ccc([As](=O)(O)O)cc1 ... inactive
17. CNC(C)Cc1ccccc1 (stereo unspecified) (tested in a mixture with another compound) ... inactive
18. CCOP(=O)(OCC)Oc1ccc(Sc2ccc(OP(=O)(OCC)OCC)cc2)cc1 ... inactive
19. COc1cccc2c1C(=O)c1c(O)c3c(c(O)c1C2=O)CC(O)(/C(C)=N/NC(=O)CCC(=O)N/N=C(\C)C1(O)Cc2c(O)c4c(c(O)c2C(OC2CC(N)C(O)C(C)O2)C1)C(=O)c1c(OC)cccc1C4=O)CC3OC1CC(N)C(O)C(C)O1 (stereo unspecified) ... active
20. c1cnc2c(c1)ccc1ncccc12 ... inactive
21. CN1CCN(C(=O)COc2ccc(/C=C3\CC4C5CC=C6CC(Cl)CCC6(C)C5CCC4(C)C3=O)cc2)CC1 (stereo unspecified) ... inactive
22. C=CCC1(CC)C(=O)NC(=S)NC1=O ... inactive
23. COC[CH2][Hg][C]#[C][Hg][CH2]COC ... inactive
24. CC1([N+](=O)[O-])COP(=O)(Nc2ccc(F)cc2)OC1 (stereo unspecified) ... inactive
25. CO[C@@H]([CH2][Hg][S]C#N)[C@@H]([CH2][Hg][S]C#N)OC ... inactive
26. CCCCCN(CCCCC)CC(O)c1ccc(C)c(Cl)c1 (stereo unspecified) ... inactive
27. CN1C(=O)NC(=O)C(N=Nc2ccc(Cl)cc2)C1=O (stereo unspecified) ... inactive
28. Oc1ccccc1OB(Oc1ccccc1O)N(CCCl)CCCl ... inactive
29. N#C[Se]CCN1C(=O)C2C(C1=O)[C@H]1C=C[C@@H]2S1 (stereo partly specified) ... inactive
30. CCC(C)/C=C(C)/C=C/C(=O)c1c(O)c(-c2ccc(O)cc2)c[nH]c1=O (stereo unspecified) ... inactive
31. CO[C@@H](c1ccccc1Cl)[C@H](C)OC(N)=O ... inactive
32. C/C1=C/C(=O)O[C@@H]2C[C@@H](CC[C@H](C)/C=C\C=C\CC1)O[C@@](OCCc1ccccc1)([C@@H]1CSC(=O)N1)C2 ... inactive
33. O=C(O)CC(Br)C(=O)CBr (stereo unspecified) ... inactive
34. C=C=[CH][Sn]([c]1ccccc1)([c]1ccccc1)[c]1ccccc1 ... active
35. CC1(C)N=C(N)N=C(N)N1c1ccc(CCCCc2ccc(S(=O)(=O)F)cc2)cc1 ... inactive
36. CC[C@@]1(C2O[C@@H](C3O[C@@](O)(CC)[C@H](C)C[C@@H]3C)C[C@@H]2C)CC[C@H]([C@]2(C)CCC3(C[C@H](O)[C@@H](C)[C@@H]([C@H](C)[C@@H](OC)[C@H](C)C(=O)O)O3)O2)O1 (stereo partly specified) ... inactive
37. Oc1ccc(Br)cc1CN1CCN(Cc2ccc(Cl)cc2)CC1 ... inactive
38. Cc1cc(NC(=O)CCc2ccc(N3C(N)=NC(N)=NC3(C)C)cc2)ccc1S(=O)(=O)F ... inactive
39. C[C@]12CCc3sc(-c4ccc(Cl)cc4)nc3C1=CC[C@@H]1[C@@H]2CC[C@]2(C)C(=O)CC[C@@H]12 ... inactive
40. O=C(O)C1(Br)CC12c1ccccc1-c1ccccc12 (stereo unspecified) ... inactive
41. S=P(Nc1ccccc1)(Nc1ccccc1)c1ccccc1 ... inactive
